meta.source: patent US20070037752A1

Biological target: alanyl aminopeptidases (APN) (Homo sapiens)
Assay: Inhibition of alanyl aminopeptidase enzymatic activity, fluorogenic substrate (Ala)2-rhodamine 110
Type: biochemical
Details: Table 9, unstarred values; read-out: IC50APN
Method: The inhibition characteristics measured are referred to as IC-50 values or ID50 values (the latter marked with “*”) for said enzyme. The enzymatic activity was determined by means of the fluorogenic substrate/product (Ala)2-rhodamine 110.
pIC50: −log10 of the molar value.
measured.attribute: pIC50

CCOC(=O)C1=C2SCC(=O)N2C(N)=C(C#N)C1 [A9.061]; 4.64
COC(=O)C1=C(N)N2C(=O)CSC2=C(C(=O)OC(C)C)C1 [A9.012]; 5.23
Cc1nc(NC(C)C(=O)O)c2nc(C)oc2n1 (stereo not drawn) [A9.108]; 4.18

1 = CC1CCN(C(=O)/C(=C\c2ccco2)NC(=O)c2ccc(Cl)cc2)CC1 [A9.009]
2 = CC1CCCCN1S(=O)(=O)c1ccc(NC(=O)/C=C/c2ccco2)cc1 (stereo not drawn) [A9.047]
Of 1 versus 2 , which is the one with smaller reported pIC50? Your answer should be the label attached to the chosen record.
2
(2: 4.70, 1: 5.21)

###

Target: UniProt:P15144
Assay: Inhibition of alanyl aminopeptidase enzymatic activity, fluorogenic substrate (Ala)2-rhodamine 110
Format: biochemical
Settings: Table 4, unstarred values; read-out: IC50APN
measured.attribute: IC50 (µM)

COc1cc(-c2cc(C(=O)N/N=C/c3ccco3)[nH]n2)ccc1OC(C)C; 36.1
COc1cc(Br)cc(Br)c1OCC(=O)N/N=C/c1cc(Br)c(O)c(O)c1Br; 13.2
O=C(N/N=C/C=C\c1ccco1)c1ccco1; 16
NC(=S)N/N=C/c1ccco1; 50
O=C(N/N=C\c1ccco1)c1cnccn1; 30.1

A = COc1cc(Br)ccc1OCC(=O)N/N=C/c1cc(Br)c(O)c(O)c1Br
B = Cc1cccc(NCC(=O)N/N=C/c2cc(Br)c(O)c(O)c2Br)c1
C = C/C(=N\NC(=O)c1ccccc1)c1ccc2ccccc2c1O
Sort low-to-high on IC50, please. Please list the labels according to the requested order.
B, A, C

A = CCCOc1ccc(/C=C(\NC(=O)c2ccccc2)C(=O)N/N=C/c2ccco2)cc1
B = Cc1ccc(/C=N/NC(=O)c2ccccc2Cl)o1
C = Cc1cc(Br)c(OCC(=O)N/N=C/c2c(Br)cc(Br)c(O)c2Br)c(Br)c1
D = O=C(N/N=C/c1ccco1)c1ccccc1[N+](=O)[O-]
Order the records so the highest IC50 appears first and the lowest last. Please list the labels according to the requested order.
D, C, A, B
(D: 91.2 µM, C: 42.2 µM, A: 27.3 µM, B: 17.7 µM)

###

Target: alanyl aminopeptidases (APN) (Homo sapiens, UniProt P15144)
Sequence (P15144 whole entry, species assumed): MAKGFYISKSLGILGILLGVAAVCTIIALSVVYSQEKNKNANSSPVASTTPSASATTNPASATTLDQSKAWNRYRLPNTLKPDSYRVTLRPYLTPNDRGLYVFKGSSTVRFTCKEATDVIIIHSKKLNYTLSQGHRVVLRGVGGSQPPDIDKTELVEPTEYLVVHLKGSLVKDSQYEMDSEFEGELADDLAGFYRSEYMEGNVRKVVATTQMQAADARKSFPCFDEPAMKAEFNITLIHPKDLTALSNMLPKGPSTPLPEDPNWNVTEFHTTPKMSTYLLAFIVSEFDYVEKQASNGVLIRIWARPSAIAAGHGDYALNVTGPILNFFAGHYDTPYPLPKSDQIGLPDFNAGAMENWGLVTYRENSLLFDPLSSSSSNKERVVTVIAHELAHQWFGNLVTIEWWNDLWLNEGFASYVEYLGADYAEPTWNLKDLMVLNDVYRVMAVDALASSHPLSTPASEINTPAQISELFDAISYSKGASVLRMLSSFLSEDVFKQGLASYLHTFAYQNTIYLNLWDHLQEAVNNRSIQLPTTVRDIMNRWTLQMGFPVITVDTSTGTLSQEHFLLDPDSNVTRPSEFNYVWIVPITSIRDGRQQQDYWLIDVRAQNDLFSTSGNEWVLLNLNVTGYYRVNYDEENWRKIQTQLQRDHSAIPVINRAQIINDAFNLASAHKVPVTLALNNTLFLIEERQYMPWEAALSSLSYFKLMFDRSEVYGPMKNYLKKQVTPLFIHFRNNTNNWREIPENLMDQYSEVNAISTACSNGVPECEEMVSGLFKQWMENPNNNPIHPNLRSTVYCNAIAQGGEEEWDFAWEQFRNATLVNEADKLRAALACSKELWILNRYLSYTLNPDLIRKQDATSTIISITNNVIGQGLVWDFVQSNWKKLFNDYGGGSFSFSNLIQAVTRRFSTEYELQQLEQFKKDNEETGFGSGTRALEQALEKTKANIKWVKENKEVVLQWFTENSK
Assay: Inhibition of alanyl aminopeptidase enzymatic activity, fluorogenic substrate (Ala)2-rhodamine 110
Assay type: biochemical
Conditions: Table 3, unstarred values; read-out: IC50APN
Description: The inhibition characteristics measured are referred to as IC-50 values or ID50 values (the latter marked with “*”) for said enzyme. The enzymatic activity was determined by means of the fluorogenic substrate/product (Ala)2-rhodamine 110.
measured.attribute: IC50 (µM)

O=C(N/N=C/c1ccco1)c1ccc(O)cc1 [A3.082]; 16.8

I = O=C(N/N=C/c1cc(Br)cc(Br)c1OC(=O)c1ccccc1)/C(=C/c1ccc2c(c1)OCO2)NC(=O)c1ccccc1 [A3.101]
II = COc1ccccc1C(=O)N/N=C/c1ccc(C)o1 [A3.211]
Of I versus II , which is the one with smaller reported IC50? Your answer should be the label attached to the chosen record.
I
